Target system: VEGFR2 fusion protein on Ba/F3 cells (extracellular domain of hVEGFR2 and intracellular domain of hEpoR) (human, UniProt P35968 20-764; P19235 274-508, limits assumed)
Procedure summary: cell-based or functional assay
Please provide measured IC50, inhibition of VEGF-A dependent proliferation of Ba/F3 cells for the entries that follow.
API: value field is a number in nM; no unit string.

Request the reported IC50, inhibition of VEGF-A dependent proliferation of Ba/F3 cells associated with Peg-V2Bshort (designed binder, pegylated at position 93 (single cysteine); the tracer form is labelled with IRDye 800CW) GEVVAATPTSLLISWRHPHFPTRYYRITYGETGGNSPVQEFTVPLQPPTATISGLKPGVDYTITVYAVTDGRNGRLLSIPISINYRTEIDKPCQ 10

Request the reported IC50, inhibition of VEGF-A dependent proliferation of Ba/F3 cells associated with 385A08-Fn-V2B-Cys (designed binder) single chain: MGVSDVPRDLEVVAATPTSLLISWSARLKVARYYRITYGETGGNSPVQEFTVPKNVYTATISGLKPGVDYTITVYAVTRFRDYQPISINYRTEIDKPSTSTSTVSDVPRDLEVVAATPTSLLISWRHPHFPTRYYRITYGETGGNSPVQEFTVPLQPPTATISGLKPGVDYTITVYAVTDGRNGRLLSIPISINYRTEIDKPCQHHHHHH 1.3

Request the reported IC50, inhibition of VEGF-A dependent proliferation of Ba/F3 cells associated with 385A08-GS5-V2B (designed binder, also called 385A08-GS5-V2B (Ser tail)) single chain: MGVSDVPRDLEVVAATPTSLLISWSARLKVARYYRITYGETGGNSPVQEFTVPKNVYTATISGLKPGVDYTITVYAVTRFRDYQPISINYRTEIDKGSGSGSGSGSVSDVPRDLEVVAATPTSLLISWRHPHFPTRYYRITYGETGGNSPVQEFTVPLQPPTATISGLKPGVDYTITVYAVTDGRNGRLLSIPISINYRTEIDKPSQHHHHHH 1

Request the reported IC50, inhibition of VEGF-A dependent proliferation of Ba/F3 cells associated with V2B-Fn-385A08-Cys (designed binder) single chain: MGVSDVPRDLEVVAATPTSLLISWRHPHFPTRYYRITYGETGGNSPVQEFTVPLQPPTATISGLKPGVDYTITVYAVTDGRNGRLLSIPISINYRTEIDKPSTSTSTVSDVPRDLEVVAATPTSLLISWSARLKVARYYRITYGETGGNSPVQEFTVPKNVYTATISGLKPGVDYTITVYAVTRFRDYQPISINYRTEIDKPCQHHHHHH 0.8

Request the reported IC50, inhibition of VEGF-A dependent proliferation of Ba/F3 cells associated with V2B-Fn-385A08 (designed binder, also called V2B-Fn-385A08 (Ser tail)) single chain: MGVSDVPRDLEVVAATPTSLLISWRHPHFPTRYYRITYGETGGNSPVQEFTVPLQPPTATISGLKPGVDYTITVYAVTDGRNGRLLSIPISINYRTEIDKPSTSTSTVSDVPRDLEVVAATPTSLLISWSARLKVARYYRITYGETGGNSPVQEFTVPKNVYTATISGLKPGVDYTITVYAVTRFRDYQPISINYRTEIDKPSQHHHHHH 2.2

Request the reported IC50, inhibition of VEGF-A dependent proliferation of Ba/F3 cells associated with 385A08-Fn-V2B (non pegylated, his-tagged version) (designed binder, also called 385A08-Fn-V2B (Ser tail); 385A08-Fn-V2B (with his tag)) GVSDVPRDLEVVAATPTSLLISWSARLKVARYYRITYGETGGNSPVQEFTVPKNVYTATISGLKPGVDYTITVYAVTRFRDYQPISINYRTEIDKPSTSTSTVSDVPRDLEVVAATPTSLLISWRHPHFPTRYYRITYGETGGNSPVQEFTVPLQPPTATISGLKPGVDYTITVYAVTDGRNGRLLSIPISINYRTEIDKPSQHHHHHH 1
